// data source = the Human Domainome abundance scans (Beltran et al. 2025)

B1: Chromodomain-helicase-DNA-binding protein 3, residues 374 to 426; numbered along this chain, Q12873 (parent)
chain: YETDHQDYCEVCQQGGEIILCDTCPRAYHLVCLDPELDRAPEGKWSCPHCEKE

variants of: B1; assay: abundance fitness (aPCA) (normalised: wild type 0, dead -1); higher = more abundant; growth selection in yeast, the domain comes from the species named; details: Homo sapiens
Measured abundance fitness accompanies every entry in the list below.
No unit in the answer, only the number.

[in] abundance fitness for `E10L` ?
[out] 0.259
